- tested_target: MUSK (Homo sapiens)
- Construct: purchased DiscoveRx KINOMEscan
- Sequence (O15146 24-869): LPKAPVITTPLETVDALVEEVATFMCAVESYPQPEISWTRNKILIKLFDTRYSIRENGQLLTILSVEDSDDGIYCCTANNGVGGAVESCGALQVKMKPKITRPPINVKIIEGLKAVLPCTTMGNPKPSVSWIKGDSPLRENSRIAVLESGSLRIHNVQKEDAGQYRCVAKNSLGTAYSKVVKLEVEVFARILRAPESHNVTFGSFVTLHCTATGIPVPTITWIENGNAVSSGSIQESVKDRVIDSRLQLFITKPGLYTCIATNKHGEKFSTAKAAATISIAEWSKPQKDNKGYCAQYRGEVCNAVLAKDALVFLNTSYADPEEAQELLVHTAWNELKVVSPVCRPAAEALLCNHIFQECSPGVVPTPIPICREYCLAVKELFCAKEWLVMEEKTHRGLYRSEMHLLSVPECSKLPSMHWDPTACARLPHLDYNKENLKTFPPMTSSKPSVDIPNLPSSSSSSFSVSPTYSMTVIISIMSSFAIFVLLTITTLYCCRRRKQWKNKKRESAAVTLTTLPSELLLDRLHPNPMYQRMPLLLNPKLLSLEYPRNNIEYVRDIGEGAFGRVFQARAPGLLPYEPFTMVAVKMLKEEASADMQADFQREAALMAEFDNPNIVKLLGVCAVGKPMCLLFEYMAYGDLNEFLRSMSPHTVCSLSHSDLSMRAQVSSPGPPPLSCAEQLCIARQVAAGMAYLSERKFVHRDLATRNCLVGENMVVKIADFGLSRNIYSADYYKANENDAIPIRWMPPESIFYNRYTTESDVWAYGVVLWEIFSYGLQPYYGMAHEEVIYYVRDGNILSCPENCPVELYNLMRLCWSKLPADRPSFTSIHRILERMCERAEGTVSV
- Format: binding
- condition_parameters: MUSK; 10 μM
Assign Percent control to each entry below.
Lab book: enter the figure in %, no units written.

Report Percent control for Cc1ccc(NC(=O)c2ccc(CN3CCN(C)CC3)cc2)cc1Nc1nccc(-c2cccnc2)n1 [Imatinib, reference compound] please.
100

Look up Percent control for this compound: COc1cc2c(Nc3ccc(Br)cc3F)[n+]([Pt-2]3([Cl])[NH2+]C4CCCCC4[NH2+]3)cnc2cc1OCC1CCN(C)CC1 (stereo not shown)
95

Reported Percent control for C#Cc1cccc(Nc2c3cc(OCCOC)c(OCCOC)cc3nc[n+]2[Pt@SP2-2]([NH3+])([NH3+])[Cl])c1 [2a, cisplatin-erlotinib] : what is it?
97

// Percent control lookup, key: Cc1ccc(NC(=O)c2ccc(CN3CCN(C)CC3)cc2)cc1Nc1nccc(-c2cccnc2)[n+]1[Pt-2]1([Cl])[NH2+]C2CCCCC2[NH2+]1 (stereo not shown)
100

---

I'd be grateful if you could share measured Percent control for these entries.
- tested_target: UniProt:P29376
- Sequence (P29376 17-864): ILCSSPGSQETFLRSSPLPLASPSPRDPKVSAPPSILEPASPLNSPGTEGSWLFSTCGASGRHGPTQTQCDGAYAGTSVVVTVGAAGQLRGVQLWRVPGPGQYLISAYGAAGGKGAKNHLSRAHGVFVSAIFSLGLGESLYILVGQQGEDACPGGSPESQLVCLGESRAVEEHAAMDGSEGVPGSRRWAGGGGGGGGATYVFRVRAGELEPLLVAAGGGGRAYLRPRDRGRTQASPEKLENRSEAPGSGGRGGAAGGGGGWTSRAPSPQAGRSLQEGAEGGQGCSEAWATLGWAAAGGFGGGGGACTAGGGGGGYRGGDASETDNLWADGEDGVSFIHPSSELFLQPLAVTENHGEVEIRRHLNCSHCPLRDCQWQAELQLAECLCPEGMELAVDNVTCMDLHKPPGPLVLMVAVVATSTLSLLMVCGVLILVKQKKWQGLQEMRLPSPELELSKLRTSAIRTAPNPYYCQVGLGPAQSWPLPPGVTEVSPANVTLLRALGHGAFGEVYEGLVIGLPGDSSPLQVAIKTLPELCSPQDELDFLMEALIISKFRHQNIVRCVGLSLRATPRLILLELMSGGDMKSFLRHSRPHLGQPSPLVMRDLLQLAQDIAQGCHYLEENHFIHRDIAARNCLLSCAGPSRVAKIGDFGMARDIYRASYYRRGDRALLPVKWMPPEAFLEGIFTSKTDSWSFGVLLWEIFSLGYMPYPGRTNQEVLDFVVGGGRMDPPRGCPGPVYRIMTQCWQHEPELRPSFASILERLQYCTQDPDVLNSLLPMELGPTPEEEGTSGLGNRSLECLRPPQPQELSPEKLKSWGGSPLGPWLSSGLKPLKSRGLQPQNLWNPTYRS
- condition_parameters: 10 μM
Your answer should be a number followed by the unit of measure.

Data request, read-out Percent control, for Cc1ccc(NC(=O)c2ccc(CN3CCN(C)CC3)cc2)cc1Nc1nccc(-c2cccnc2)[n+]1[Pt-2]1([Cl])[NH2+]C2CCCCC2[NH2+]1 (stereo not shown)
85%

Please give the measured Percent control for this molecule: COc1cc2c(Nc3ccc(Br)cc3F)[n+]([Pt-2]3([Cl])[NH2+]C4CCCCC4[NH2+]3)cnc2cc1OCC1CCN(C)CC1 (stereo not shown)
27%

Which Percent control is listed for Cc1ccc(NC(=O)c2ccc(CN3CCN(C)CC3)cc2)cc1Nc1nccc(-c2cccnc2)n1 [Imatinib, reference compound] ?
92%

Given C#Cc1cccc(Nc2c3cc(OCCOC)c(OCCOC)cc3nc[n+]2[Pt@SP2-2]([NH3+])([NH3+])[Cl])c1 [2a, cisplatin-erlotinib] , state its recorded Percent control.
82%
